Biological target: UniProt P20273
Sequence (P20273 whole entry): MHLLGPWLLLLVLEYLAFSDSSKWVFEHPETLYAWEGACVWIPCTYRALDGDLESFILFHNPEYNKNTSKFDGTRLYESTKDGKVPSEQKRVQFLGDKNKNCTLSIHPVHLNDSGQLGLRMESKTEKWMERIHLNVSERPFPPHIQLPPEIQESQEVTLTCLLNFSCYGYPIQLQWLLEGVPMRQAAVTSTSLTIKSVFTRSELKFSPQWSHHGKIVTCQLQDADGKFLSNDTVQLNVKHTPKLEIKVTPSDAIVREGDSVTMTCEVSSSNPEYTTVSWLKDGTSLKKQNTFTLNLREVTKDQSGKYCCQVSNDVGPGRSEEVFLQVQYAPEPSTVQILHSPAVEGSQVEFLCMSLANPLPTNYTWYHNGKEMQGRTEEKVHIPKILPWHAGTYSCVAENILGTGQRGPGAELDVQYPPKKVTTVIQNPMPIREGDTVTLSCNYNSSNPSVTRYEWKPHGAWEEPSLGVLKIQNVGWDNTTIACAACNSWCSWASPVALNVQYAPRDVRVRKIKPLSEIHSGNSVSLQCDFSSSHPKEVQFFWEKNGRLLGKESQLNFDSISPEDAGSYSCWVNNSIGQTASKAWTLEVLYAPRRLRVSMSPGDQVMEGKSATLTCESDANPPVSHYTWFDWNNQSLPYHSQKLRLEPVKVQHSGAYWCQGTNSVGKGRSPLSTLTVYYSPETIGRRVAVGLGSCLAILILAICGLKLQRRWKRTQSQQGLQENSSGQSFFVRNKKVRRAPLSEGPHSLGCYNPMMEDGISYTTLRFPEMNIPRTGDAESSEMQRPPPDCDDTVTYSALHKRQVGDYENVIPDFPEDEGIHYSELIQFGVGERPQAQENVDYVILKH
Experiment: Binding affinity to biotinylated human CD22-human IgG1 chimeric protein expressed in mouse J558LST6 cells by flow cytometry
measured.quantity: IC50 (µM)

[a] COc1ccc(O[C@@H]2O[C@H](CO[C@]3(C(=O)O)C[C@H](O)[C@@H](NC(=O)CO)[C@H]([C@H](O)[C@H](O)CO)O3)[C@H](O)[C@H](O)[C@H]2O)cc1
[b] COc1ccc(O[C@@H]2O[C@H](CO[C@]3(C(=O)O)C[C@H](O)[C@@H](NC(=O)CO)[C@H]([C@H](O)[C@H](O)CNCc4ccc(-c5cccc(C(=O)O)c5)cc4)O3)[C@H](O)[C@H](O)[C@H]2O)cc1
[c] COc1ccc(O[C@@H]2O[C@H](CO[C@]3(C(=O)O)C[C@H](O)[C@@H](NC(=O)CO)[C@H]([C@H](O)[C@H](O)CNCc4ccc(-c5ccc(C(=O)O)cc5)cc4)O3)[C@H](O)[C@H](O)[C@H]2O)cc1
Hey, quick one: sort these by IC50, low to high? Your answer should be the labels, listed in the requested order.
b, c, a
(b: 7.48 µM, c: 43 µM, a: 148 µM)

Values were extracted from ChEMBL document CHEMBL1142516.
